Listing: Peak area as % of total area of all glycoforms, 14,401 of selected compounds
System: lysozyme
assay_procedure: ESI-MS of lysozyme glycoforms after incubation with D-ribose
protocol_conditions: lysozyme + D-ribose − 3H2O (14,401 Da); 37° C., 5 days

Problem: If you can, please state the reported Peak area as % of total area of all glycoforms, 14,401 value of O=C1C[C@@H](c2ccc(O)c(O)c2)Oc2cc(O)cc(O)c21 [Eriodictyol] .
Result: 0.4%

Problem: Also need NC[C@@H](O)c1ccc(O)c(O)c1 [L-Norepinephrine] , thanks.
Result: 2.3%

Problem: Moving on to the next compound: NC(=O)N/N=C/c1ccc([N+](=O)[O-])o1 [Nitrofurazone]
Result: 0.0%

Problem: Note, next up: Cc1cc(N)c2ccccc2c1O [Vitamin K5]
Result: 0.0%

Problem: Moving on to O=c1cc(-c2cc(O)c(O)c(O)c2)oc2cc(O)cc(O)c12 [5,7,3′,4′,5′-Pentahydroxyflavone]
Result: 0.2%

Problem: // same read-out, input: O=c1cc(-c2ccc(O)c(O)c2)oc2ccc(O)cc12 [6,3′,4′-Trihydroxyflavone]
Result: 0.3%

Problem: Again, but for CN1CCCN=C1/C=C/c1cccc(O)c1 [Oxantel]
Result: 3.7%

Problem: Entry N=C(N)NN [Aminoguanidine] please
Result: 2.1%

Problem: Can you check O=S(=O)(O)c1ccc(O)c2ncccc12 [8-Hydroxyquinoline-5-sulfonic acid] next?
Result: 2.0%

Problem: Also need O=Cc1ccc(O)c(O)c1 [3,4-Dihydroxybenzaldehyde] , thanks.
Result: 0.0%

---

Tested on: bovine serum albumin (BSA)
assay_procedure: Fluorescamine assay of free primary amino groups of BSA incubated with D-ribose
Format: biochemical
protocol_conditions: free primary amino group on BSA after 5 days at 37° C.; agent at 16.8 times IC50; 64% without agent
# maps each entry to its Unreacted amino group
Express your answer in %, writing the number without its unit.

As a guide, the following entries are already answered.
NC[C@@H](O)c1ccc(O)c(O)c1 [L-Norepinephrine] : 70
Oc1cc(O)c2c(c1)O[C@H](c1ccc(O)c(O)c1)[C@@H](O)C2 [(+)-Catechin] : 66
O=c1cc(-c2ccc(O)c(O)c2)oc2c(O)c(O)ccc12 [7,8,3′,4′-Tetrahydroxyflavone] : 56
CNC[C@H](O)c1ccc(O)c(O)c1 [L-Epinephrine] : 69

Problem: # value lookup — system bovine serum albumin (BSA), readout Unreacted amino group, item O=C1C[C@@H](c2ccc(O)c(O)c2)Oc2cc(O)cc(O)c21
Result: 43

Problem: For O=c1cc(-c2ccc(O)c(O)c2)oc2cc(O)cc(O)c12 then?
Result: 60

Problem: Consider next the compound N[C@@H](Cc1ccc(O)c(O)c1)C(=O)O in the same way.
Result: 60

Problem: Same question, Cc1cc(-c2ccc(/N=N/c3c(S(=O)(=O)O)cc4cc(S(=O)(=O)O)cc(N)c4c3O)c(C)c2)ccc1/N=N/c1c(S(=O)(=O)O)cc2cc(S(=O)(=O)O)cc(N)c2c1O this time
Result: 60

Problem: Also need N=C(N)NN , thanks.
Result: 68

---

System: lysozyme
assay_procedure: ESI-MS of lysozyme glycoforms after incubation with D-ribose
protocol_conditions: unmodified lysozyme (14,305 Da); 37° C., 5 days
Lab note: compare Peak area as % of total area of all glycoforms, 14,305 against 60%. Equal or greater, write class 1. Smaller, write class 0.

Please review the entries below; each comes with its answer.
O=c1cc(-c2ccccc2O)oc2cc(O)cc(O)c12 [5,7,2′-Trihydroxyflavone] : class 0
O=c1oc2c(O)c(O)cc3c(=O)oc4c(O)c(O)cc1c4c23 : class 1

Problem: Is the recorded value of Peak area as % of total area of all glycoforms, 14,305 equal to or greater than 60% for this compound? Cc1cc(N)c2ccccc2c1O
Result: class 1

Problem: Moving on to the next compound: O=S(=O)(O)c1ccc(O)c2ncccc12 [8-Hydroxyquinoline-5-sulfonic acid]
Result: class 0

Problem: // repeat for N[C@@H](Cc1ccc(O)c(O)c1)C(=O)O and report
Result: class 1

Problem: Can you check Oc1c(Br)cc(Br)c2cccnc12 next?
Result: class 0

Problem: Follow-up entry: Nc1ncc([N+](=O)[O-])cn1
Result: class 0

---

Test system: bovine serum albumin (BSA)
pIC50: −log10 of the molar value.
Assign classes using reported pIC50 values and the ranges lower band (below 3), central band (3 to below 4), upper band (4 or more), please.

For orientation, consider the following solved cases.
O=C1c2c(O)ccc(O)c2C(=O)c2c(NCCNCCO)ccc(NCCNCCO)c21 : central band
CNCC(O)c1ccc(O)cc1 (stereo not drawn) [Synephrine] : lower band

Problem: Class (by measured pIC50) for COc1cccc2c1cc([N+](=O)[O-])c1c(C(=O)O)cc3c(c12)OCO3
Result: lower band

Problem: Then O=[N+]([O-])c1ccc(O)c(Cl)c1 ?
Result: lower band

Problem: And the next one, NC(=O)NO [Hydroxyurea] ?
Result: lower band

Problem: Same thing, different molecule: O=c1c(O)c(-c2cc(O)c(O)c(O)c2)oc2cc(O)cc(O)c12
Result: upper band

---

Tested on: lysozyme
assay_procedure: ESI-MS of lysozyme glycoforms after incubation with D-ribose
protocol_conditions: lysozyme with one carboxymethylated Lys residue (14,364 Da); 37° C., 5 days
assay_metric: Peak area as % of total area of all glycoforms, 14,364 (%)
Provide only the numeric value, understood in %.

O=S(=O)(O)c1ccc(O)c2ncccc12 [8-Hydroxyquinoline-5-sulfonic acid] : 0.7

Problem: What is its Peak area as % of total area of all glycoforms, 14,364 for lysozyme? Entry: Cc1cc(-c2ccc(/N=N/c3c(S(=O)(=O)O)cc4cc(S(=O)(=O)O)cc(N)c4c3O)c(C)c2)ccc1/N=N/c1c(S(=O)(=O)O)cc2cc(S(=O)(=O)O)cc(N)c2c1O
Result: 3.7

Problem: Please give the result for O=c1c(O)cccc2cc(O)c(O)c(O)c12 too.
Result: 0.0

Problem: How about this compound: CN1CCCN=C1/C=C/c1cccc(O)c1
Result: 5.4

Problem: // same read-out, input: CCCOC(=O)c1cc(O)c(O)c(O)c1 [Propyl gallate]
Result: 4.4

Problem: Likewise for O=C1C=C(O)C(=O)c2ccccc21 ?
Result: 7.5

Problem: Would you kindly repeat that for CC(C)NC[C@H](O)c1ccc(O)c(O)c1 ?
Result: 5.3

Problem: Item: O=C1C[C@@H](c2ccc(O)cc2)Oc2cc(O)cc(O)c21
Result: 0.1

Problem: Entry to check: O=[N+]([O-])c1ccc(O)c2ncccc12
Result: 4.2

---

System: bovine serum albumin (BSA)
assay_procedure: Fluorescamine assay of free primary amino groups of BSA incubated with D-ribose
Format: biochemical
protocol_conditions: free primary amino group on BSA after 5 days at 37° C.; agent at 16.8 times IC50; 64% without agent
assay_metric: Unreacted amino group (%)
A number alone suffices; assume %.

# count of solved cases: 4
CC(C)NC[C@H](O)c1ccc(O)c(O)c1 [L-Isoproterenol] : 73
O=c1cc(-c2ccccc2)oc2cc(O)c(O)c(O)c12 [Baicalein] : 48
C[C@](N)(Cc1ccc(O)c(O)c1)C(=O)O [L-α-Methyl-DOPA] : 47
O=C1c2c(O)ccc(O)c2C(=O)c2c(NCCNCCO)ccc(NCCNCCO)c21 [Mitoxantrone] : 50

Problem: Entry CN1CCCN=C1/C=C/c1cccc(O)c1 [Oxantel] has what Unreacted amino group?
Result: 55

Problem: Let us now turn to O=S(=O)(O)c1ccc(O)c2ncccc12 [8-Hydroxyquinoline-5-sulfonic acid]
Result: 76

---

Test system: lysozyme
assay_procedure: ESI-MS of lysozyme glycoforms after incubation with D-ribose;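 note: lysozyme incubated with D-ribose, with or without anti-glycation agents, then separated by reversed-phase HPLC and analysed by electrospray mass spectrometry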
protocol_conditions: unmodified lysozyme (14,305 Da); 37° C., 5 days
assay_metric: Peak area as % of total area of all glycoforms, 14,305
Be sure to follow the number with its unit.

The examples below pair each entry with its known result.
Oc1cc(O)c2c(c1)O[C@H](c1ccc(O)c(O)c1)[C@H](O)C2 [(−)-Epicatechin] : 76.3%
CNC[C@H](O)c1ccc(O)c(O)c1 [L-Epinephrine] : 74.5%
COc1ccc2c(c1)c(CC(=O)O)c(C)n2C(=O)c1ccc(Cl)cc1 : 58.0%
O=C1c2c(O)ccc(O)c2C(=O)c2c(NCCNCCO)ccc(NCCNCCO)c21 : 49.8%
O=C(O)c1cc(/N=N/c2ccc(S(=O)(=O)Nc3ccccn3)cc2)ccc1O : 47.2%
CNCC(=O)c1ccc(O)c(O)c1 : 59.3%
O=c1c(O)cccc2cc(O)c(O)c(O)c12 : 67.9%
Oc1cc(O)c2c(c1)O[C@H](c1ccc(O)c(O)c1)[C@@H](O)C2 [(+)-Catechin] : 68.9%
O=[N+]([O-])c1ccc(O)c2ncccc12 : 66.7%

Problem: Need Peak area as % of total area of all glycoforms, 14,305 of C[C@](N)(Cc1ccc(O)c(O)c1)C(=O)O , thanks.
Result: 69.4%
